Catalogue of inhibition values
biological target: Tyrosine-protein kinase JAK2 (Homo sapiens) (UniProt O60674); conditions: at 0.1 µM;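 note: mean percent inhibition of JAK2 activity, from the GSK PKIS kinase panel screen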
Sequence (O60674 whole entry): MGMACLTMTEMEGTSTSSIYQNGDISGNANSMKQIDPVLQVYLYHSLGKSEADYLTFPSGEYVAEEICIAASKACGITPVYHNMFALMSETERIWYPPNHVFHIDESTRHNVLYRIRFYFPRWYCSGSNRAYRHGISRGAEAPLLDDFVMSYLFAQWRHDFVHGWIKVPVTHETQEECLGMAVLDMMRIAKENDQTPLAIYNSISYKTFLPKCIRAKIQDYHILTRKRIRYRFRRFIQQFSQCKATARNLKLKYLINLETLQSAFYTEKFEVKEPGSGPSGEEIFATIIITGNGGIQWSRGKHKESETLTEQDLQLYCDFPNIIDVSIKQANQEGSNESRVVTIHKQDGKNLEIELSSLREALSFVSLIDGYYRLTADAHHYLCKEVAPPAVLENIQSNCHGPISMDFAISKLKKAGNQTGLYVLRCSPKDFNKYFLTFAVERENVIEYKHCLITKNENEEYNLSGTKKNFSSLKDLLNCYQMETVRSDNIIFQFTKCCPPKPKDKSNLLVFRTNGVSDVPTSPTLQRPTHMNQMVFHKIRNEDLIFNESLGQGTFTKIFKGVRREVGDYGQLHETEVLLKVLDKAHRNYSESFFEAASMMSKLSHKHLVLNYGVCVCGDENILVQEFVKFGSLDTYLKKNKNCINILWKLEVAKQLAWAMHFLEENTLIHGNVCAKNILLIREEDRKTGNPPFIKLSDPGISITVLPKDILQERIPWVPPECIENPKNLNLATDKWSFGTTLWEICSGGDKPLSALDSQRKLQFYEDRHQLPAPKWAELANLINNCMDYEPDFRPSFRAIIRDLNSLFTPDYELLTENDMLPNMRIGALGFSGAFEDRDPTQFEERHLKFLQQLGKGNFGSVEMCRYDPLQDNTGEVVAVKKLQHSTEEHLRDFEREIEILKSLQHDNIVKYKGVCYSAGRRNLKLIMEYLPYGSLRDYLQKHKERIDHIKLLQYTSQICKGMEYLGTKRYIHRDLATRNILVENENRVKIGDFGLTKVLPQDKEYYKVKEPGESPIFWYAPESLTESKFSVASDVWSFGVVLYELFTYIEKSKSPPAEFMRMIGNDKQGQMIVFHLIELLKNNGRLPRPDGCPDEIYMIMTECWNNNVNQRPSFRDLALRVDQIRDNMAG

{"compound-smiles": "COc1cc(C=NNc2ncnc3c2cnn3Cc2ccccc2)ccc1O", "inhibition (%)": -1.56}
{"compound-smiles": "COc1cccc(COc2cc(-n3cnc4ccccc43)sc2C(N)=O)c1", "inhibition (%)": -1.09}
{"compound-smiles": "NC(=O)c1sc(-n2cnc3cc(C(F)(F)F)ccc32)cc1OCc1ccccc1Br", "inhibition (%)": 0.93}
{"compound-smiles": "CCn1c(-c2nonc2N)nc2c(C#CCN)ncc(OCCCN)c21", "inhibition (%)": -1.01}
{"compound-smiles": "CCn1c(-c2nonc2N)nc2c(C#CC(C)(C)O)ncc(OC[C@@H]3CCCN3)c21", "inhibition (%)": -1.4}
{"compound-smiles": "COc1cccc(-n2ncc3c(N/N=C/c4ccncc4)ncnc32)c1", "inhibition (%)": 2.01}
{"compound-smiles": "COc1cc2c(cc1Nc1nc(Nc3ccsc3C(N)=O)c3cc[nH]c3n1)N(C(=O)CN(C)C)CCC2", "inhibition (%)": 3.45}
{"compound-smiles": "Nc1nonc1-c1nc2cnccc2n1C1CCCCC1", "inhibition (%)": -0.95}
{"compound-smiles": "Cc1cc(-c2ccco2)cc(C)c1/C=C/c1cncc(-c2nn[nH]n2)c1", "inhibition (%)": 0}

Each recorded value in this set is attributed to ChEMBL document CHEMBL1961873.
